Target: Mitogen-activated protein kinase 8 (Homo sapiens)
Sequence (P45983 whole entry): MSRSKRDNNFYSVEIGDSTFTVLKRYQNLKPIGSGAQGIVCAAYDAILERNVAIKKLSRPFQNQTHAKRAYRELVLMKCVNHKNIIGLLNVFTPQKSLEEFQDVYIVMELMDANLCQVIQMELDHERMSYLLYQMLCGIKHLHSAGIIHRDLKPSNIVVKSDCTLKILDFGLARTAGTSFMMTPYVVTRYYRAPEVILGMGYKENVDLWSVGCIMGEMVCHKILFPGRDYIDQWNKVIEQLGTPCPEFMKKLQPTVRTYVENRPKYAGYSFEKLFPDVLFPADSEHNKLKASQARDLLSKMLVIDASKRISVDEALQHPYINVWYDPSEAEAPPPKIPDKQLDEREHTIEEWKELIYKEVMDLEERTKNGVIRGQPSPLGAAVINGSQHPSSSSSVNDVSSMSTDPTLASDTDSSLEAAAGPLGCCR
Experiment: Inhibition of JNK1 by high throughput screening
READOUT TYPE: pIC50
Quick note: pIC50 means taking -log10 of the concentration in moles per liter.

Recorded pIC50 for `O=C(NC1CCNCC1)c1cccc(-c2n[nH]c3cc(Nc4ccccc4Cl)ccc23)c1` , please?
7.10

* * *

Target: Inhibitor of nuclear factor kappa-B kinase subunit alpha (Homo sapiens)
Sequence (O15111 whole entry): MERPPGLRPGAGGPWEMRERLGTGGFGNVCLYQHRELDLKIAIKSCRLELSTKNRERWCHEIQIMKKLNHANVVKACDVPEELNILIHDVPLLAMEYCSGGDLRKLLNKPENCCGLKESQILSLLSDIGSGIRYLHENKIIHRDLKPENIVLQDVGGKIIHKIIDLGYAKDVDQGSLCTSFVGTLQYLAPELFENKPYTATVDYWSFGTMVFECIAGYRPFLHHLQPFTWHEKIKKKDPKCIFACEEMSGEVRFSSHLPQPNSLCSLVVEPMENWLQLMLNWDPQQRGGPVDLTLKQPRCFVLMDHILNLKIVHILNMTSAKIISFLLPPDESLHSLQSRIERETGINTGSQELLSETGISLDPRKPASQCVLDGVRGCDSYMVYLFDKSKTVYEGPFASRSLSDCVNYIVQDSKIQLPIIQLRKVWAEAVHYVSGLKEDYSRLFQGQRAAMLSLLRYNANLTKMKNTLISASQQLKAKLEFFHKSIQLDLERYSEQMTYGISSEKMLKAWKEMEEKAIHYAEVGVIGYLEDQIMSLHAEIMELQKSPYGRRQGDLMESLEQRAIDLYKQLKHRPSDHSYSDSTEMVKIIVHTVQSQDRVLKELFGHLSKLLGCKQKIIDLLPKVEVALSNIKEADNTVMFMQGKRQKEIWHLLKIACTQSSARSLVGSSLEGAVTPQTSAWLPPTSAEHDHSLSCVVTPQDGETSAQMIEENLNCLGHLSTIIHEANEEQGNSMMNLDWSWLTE
Assay: Inhibition of IKKalpha
READOUT TYPE: IC50

SMILES ENTRY	IC50
COc1cc2c(cc1Cl)C(c1cccc(Cl)c1)=NCC2	> 10 µM

--- query ---
Recorded IC50 for `COc1cc2c(cc1Cl)C(c1ccc(Cl)c(Cl)c1)=NCC2` , please?
> 10 µM
